protocol_summary: Encapsulation of mRNA nanoparticles with lipid amines using Ribogreen assay
Assay type: physicochemical
condition_label: Luciferase mRNA nanoparticle modified with lipid amine
Counter-ions that a name gives are not always drawn.
Listing: % Encapsulation (Ribogreen) of selected compounds

// known answers, use as guide
compound | assay_endpoint | result
CCC(N)(CC)CCNCCCCN(CCC(N)(CC)CC)C(=O)O[C@H]1CC[C@@]2(C)C(=CC[C@H]3[C@@H]4CC[C@H]([C@H](C)CCCC(C)C)[C@@]4(C)CC[C@@H]32)C1.Cl.Cl.Cl [SA133] | % Encapsulation (Ribogreen) | 99.0%
CC[C@H](CC[C@@H](C)[C@H]1CC[C@H]2[C@@H]3CC=C4C[C@@H](SSCCC(=O)N(CCCCCCCC(C)(C)N)CCC(C)(C)N)CC[C@]4(C)[C@H]3CC[C@]12C)C(C)C [SA179, dihydrochloride] | % Encapsulation (Ribogreen) | 99.0%
CC[C@H](CC[C@@H](C)[C@H]1CC[C@H]2[C@@H]3CC=C4C[C@@H](OC(=O)CCCC(=O)N(CCC(C)N)CCC(C)N)CC[C@]4(C)[C@H]3CC[C@]12C)C(C)C (stereo partly shown) [SA156, dihydrochloride] | % Encapsulation (Ribogreen) | 99.5%

Form field: reported % Encapsulation (Ribogreen) of CC(C)CCC[C@@H](C)[C@H]1CC[C@H]2[C@@H]3CC=C4C[C@@H](OC(=O)CCC(=O)N(CCC(C)(C)N)CCC(C)(C)N)CC[C@]4(C)[C@H]3CC[C@]12C [SA169, dihydrochloride]
99.4%
